- assay.protocol: Pharmacokinetic assessments in plasma, phase I/Ib study
- Assay type: in vivo, human
- assay.setup: human, plasma, oral, 800 mg, 800 mg BID (fed), C1D1; geometric mean; read-out: t1/2 (converted)
- Description: Complete PK assessments were performed during dose escalation on Day 1 of Cycle 1 and 2 and pre-dose at other time points (pre-dose on Day 8 and Day 15 of Cycle 1 and 2, Day 1 and Day 15 of Cycle 3 and 4 and pre-dose on Cycle 5 and beyond). In the dose expansion phase, samples were collected pre-dose on Day 1 from Cycle 1 to Cycle 8. […]

{"entry.smiles": "CC[C@H](Nc1ncnc2[nH]cnc12)c1oc2ccccc2c(=O)c1-c1cccc(F)c1", "half-life": "2.6 h"}
